Molecular target: APC-55 (Homo sapiens)
Construct: APC-55, a peptide corresponding to amino acids 2-55 of human APC; made in house; host or cells: E. coli BL21 (DE3), pAED4 plasmid
Assay: Fluorescence energy transfer titration (dissociation constant of heterodimer)
Type: binding
Conditions: estimated from the sensitivity of the fluorescence method; read-out: dissociation constant of the APC-55/Anti-APCp2 heterodimer
Where no end group is shown, it is not given here. [ ]: non-standard residue; d: D form. Nle = CCCC[C@H](N)C(=O)O
metric: Kd

Input line: Recorded Kd for [Nle]AAKGDQLKKEVEALEYENSNLRKKLEDHKKKLTKLKTEISNAKK[Nle]LKQLYASI [anti-APCp2] , please?
Output line: < 0.01 µM

====

Target: APC-55 (Homo sapiens)
Construct: APC-55, a peptide corresponding to amino acids 2-55 of human APC; made in house; host or cells: E. coli BL21 (DE3), pAED4 plasmid
Sequence (P25054 2-55): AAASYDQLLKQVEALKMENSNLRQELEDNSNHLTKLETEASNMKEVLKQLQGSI
Assay: Fluorescence energy transfer titration (dissociation constant of heterodimer)
Assay type: binding
Conditions: fluorescein- and coumarin-labeled anti-APCp1 and APC-55; data not shown; read-out: Kd of the heterodimer (upper limit)
Where no end group is shown, it is not given here.
metric: Kd

Input line: Recall the recorded Kd for MAAKGDQLKKEVEALEYENSNLRKKLEDHKKKLTKLKTEISNAKKMLKQLYASI [anti-APCp1] with APC-55 (Homo sapiens) and state it.
Output line: ≤ 10 nM
